Molecular target: hGIPR (Homo sapiens, UniProt P48546)
Sequence (P48546 22-466): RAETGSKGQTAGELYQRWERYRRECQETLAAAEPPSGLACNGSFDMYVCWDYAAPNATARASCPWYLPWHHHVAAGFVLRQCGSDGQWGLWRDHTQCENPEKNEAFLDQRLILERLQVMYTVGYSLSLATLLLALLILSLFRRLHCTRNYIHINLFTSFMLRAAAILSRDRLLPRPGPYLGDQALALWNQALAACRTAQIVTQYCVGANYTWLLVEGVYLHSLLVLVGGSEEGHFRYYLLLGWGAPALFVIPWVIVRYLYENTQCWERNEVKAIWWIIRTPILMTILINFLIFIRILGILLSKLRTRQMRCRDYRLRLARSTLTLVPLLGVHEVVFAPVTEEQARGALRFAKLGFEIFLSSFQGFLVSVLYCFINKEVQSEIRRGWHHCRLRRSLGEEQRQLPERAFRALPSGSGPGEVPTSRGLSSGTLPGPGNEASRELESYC
Assay: Functional cAMP activation in the presence of 0.1% casein (no HSA);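 as to Relative cAMP EC50, hGIPR: intracellular cAMP rise after 30 min at 37 °C read by HTRF against a standard curve, scaled between buffer alone (0%) and top control ligand concentration (100%), four-parameter fit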
Type: cell-based
Conditions: in the presence of 0.1% casein (no HSA); geometric mean; read-out: Relative cAMP EC50, hGIPR
Starred links: 1 amine or outer side, 2 acyl side, 3 side chain; linkers in the order of their positions; H or OH if unused. Non-standard residues stand in square brackets, D forms with d. Groups on a side chain read outwards from the residue. *: point of attachment. C20 diacid = O=C(O)CCCCCCCCCCCCCCCCCCC(=O)*; C18 diacid = O=C(O)CCCCCCCCCCCCCCCCC(=O)*; γGlu = O=C(O)[C@H](CCC(=O)[*:2])N[*:1]; αMe4Pal = C[C@](N)(Cc1ccncc1)C(=O)O; 4Pal = N[C@@H](Cc1ccncc1)C(=O)O; αMeL = CC(C)C[C@](C)(N)C(=O)O; Orn = NCCC[C@H](N)C(=O)O; AEEA = NCCOCCOCC(=O)O; Aib = CC(C)(N)C(=O)O

substance: H-Y[Aib]QGTFTSDFS[Orn][αMeL]LDKK([AEEA-γGlu-C18 diacid])AQ[Aib]AFIEWLLEGGSSSGAPPPSGS-NH2 [Example 173]
measurement-units: nM
EC50: 0.168
--
substance: H-Y[Aib]QGTFTSDFS[Orn][αMeL]LDKK([AEEA-γGlu-C18 diacid])AQ[Aib]AFIEYLLE[Aib]GHSSGAPPPSGE-NH2 [Example 247]
measurement-units: nM
EC50: 0.0794
--
substance: H-Y[Aib]QGTFTSDFS[Orn][αMeL]LDKK([γGlu-AEEA-γGlu-C18 diacid])AQ[Aib]AFIEYLLE[Aib]GPSSGAPPPSGS-NH2 [Example 193]
measurement-units: nM
EC50: 0.0609
--
substance: H-Y[Aib]QGTFTSD[4Pal]S[Orn][αMeL]LD[Orn]K([γGlu-γGlu-C18 diacid])AQ[αMe4Pal]AFIEYLIAGGPSSGEPPPSGE-NH2 [Example 983]
measurement-units: nM
EC50: 0.289
--
substance: H-Y[Aib]QGTFTSDYSI[αMeL]LDKQAAK([AEEA-AEEA-γGlu-C20 diacid])QFVEWLIA[Aib]GPSSGEPPPGTG-NH2 [Example 336]
measurement-units: nM
EC50: 0.306
--
substance: H-Y[Aib]QGTFTSDYSI[αMeL]LDKQAAK([AEEA-AEEA-γGlu-C20 diacid])QFVNWLLA[Aib]GPSSGEPPPSEG-NH2 [Example 325]
measurement-units: nM
EC50: 0.351

* * *

Target: hGcgR (Homo sapiens)
Sequence (P47871 26-477): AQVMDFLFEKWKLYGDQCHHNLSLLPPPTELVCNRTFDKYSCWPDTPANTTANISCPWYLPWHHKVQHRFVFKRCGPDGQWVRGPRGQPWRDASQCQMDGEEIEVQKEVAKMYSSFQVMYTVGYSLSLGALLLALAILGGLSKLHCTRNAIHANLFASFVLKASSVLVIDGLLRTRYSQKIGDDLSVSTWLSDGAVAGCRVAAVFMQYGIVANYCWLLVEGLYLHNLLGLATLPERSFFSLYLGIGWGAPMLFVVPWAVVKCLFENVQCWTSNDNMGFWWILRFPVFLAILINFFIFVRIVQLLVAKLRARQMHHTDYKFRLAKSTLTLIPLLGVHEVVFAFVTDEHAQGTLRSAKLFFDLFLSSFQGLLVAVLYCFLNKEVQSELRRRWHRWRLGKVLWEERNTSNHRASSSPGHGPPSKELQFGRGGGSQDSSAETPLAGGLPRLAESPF
Assay: Functional cAMP activation in the presence of 0.1% casein (no HSA);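 also: intracellular cAMP rise after 30 min at 37 °C, read by HTRF against a cAMP standard curve, scaled from buffer only (0%) to maximal control ligand response (100%)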
Assay type: cell-based
Conditions: in the presence of 0.1% casein (no HSA); geometric mean; read-out: Relative cAMP EC50, hGcgR
pEC50: −log10 of the molar value. Starred links: 1 amine or outer side, 2 acyl side, 3 side chain; linkers in the order of their positions; H or OH if unused. Non-standard residues stand in square brackets, D forms with d. Groups on a side chain read outwards from the residue. No end group written: not given here. *: point of attachment. C20 diacid = O=C(O)CCCCCCCCCCCCCCCCCCC(=O)*; C18 diacid = O=C(O)CCCCCCCCCCCCCCCCC(=O)*; αMePhe(2-F) = C[C@](N)(Cc1ccccc1F)C(=O)O; γGlu = O=C(O)[C@H](CCC(=O)[*:2])N[*:1]; NMeY = CN[C@@H](Cc1ccc(O)cc1)C(=O)O; αMe4Pal = C[C@](N)(Cc1ccncc1)C(=O)O; αMeY = C[C@](N)(Cc1ccc(O)cc1)C(=O)O; αMeF = C[C@](N)(Cc1ccccc1)C(=O)O; 4Pal = N[C@@H](Cc1ccncc1)C(=O)O; αMeL = CC(C)C[C@](C)(N)C(=O)O; αMeS = C[C@](N)(CO)C(=O)O; Orn = NCCC[C@H](N)C(=O)O; Dap = NC[C@H](N)C(=O)O; AEEA = NCCOCCOCC(=O)O; Aib = CC(C)(N)C(=O)O

substance: H-Y[Aib]QGTFTSD[4Pal]S[Orn][αMeL]LDKK([AEEA-γGlu-C18 diacid])AQ[αMe4Pal]AFIEYLIE[Aib]GPSSGAPPPSGS-NH2 [Example 808]
pEC50: 8.78
--
substance: H-Y[Aib]QGTFTSDYSK[αMeL]LDKK([AEEA-γGlu-C20 diacid])AQQAFVQWLIE[dA]GPSSGEPPPSEG-NH2 [Example 342]
pEC50: 7.99
--
substance: H-Y[Aib]QGTFTSDFS[Orn][αMeL]LDKK([AEEA-AEEA-γGlu-C20 diacid])AQ[Aib]AFIEYLLE[Aib]GPSSGAPPPSEG-NH2 [Example 71]
pEC50: 8.06
--
substance: H-Y[Aib]QGTFTSDFS[Orn][αMeL]LDKK([AEEA-γGlu-C18 diacid])AQ[αMe4Pal]AFIEYLIE[Aib]GPSSGAPPPSGS-NH2 [Example 811]
pEC50: 9.14
--
substance: H-Y[Aib]QGTFTSD[4Pal]SQ[αMeL]LD[Orn]K([dE-γGlu-C18 diacid])AQ[αMe4Pal]AFIE[αMeY]LLAGGPSSGAPPPSGSEEE-NH2 [Example 1082]
pEC50: 7.91
--
substance: H-Y[Aib]QGTFTSD[4Pal]SR[αMeL]LDKK([γGlu-γGlu-C18 diacid])AQ[αMe4Pal]AFIE[αMe4Pal]LIEGGPSSGAPPPSGS-NH2 [Example 953]
pEC50: 8.56
--
substance: Y[Aib]QGTFTSDFS[Orn][αMeL]LDKK([AEEA-AEEA-γGlu-C18 diacid])AQ[Aib]AFIEYLLE[dA]GPSSG[4Pal]PPPSGS-NH2 [Example 254]
pEC50: 8.31
--
substance: H-Y[Aib]QGTFTSD[4Pal]SK[αMeL]LDKK([AEEA-γGlu-C18 diacid])AQ[Aib]AFIEYLIE[Aib]GPSSGAPPPSGSEE-NH2 [Example 902]
pEC50: 7.80
--
substance: H-Y[Aib]QGTFTSDFS[Dap][αMeL]LDKK([AEEA-γGlu-C18 diacid])AQ[Aib]AFIEYLIE[Aib]GPSSGAPPPSGS-NH2 [Example 800]
pEC50: 7.68
--
substance: H-Y[Aib]QGT[αMePhe(2-F)]TSD[4Pal][αMeS]I[αMeL]LD[Orn]K([AEEA-γGlu-C18 diacid])AQ[αMe4Pal]EFI[dE][αMeY]LIEGGPSSGEPPPGGE-NH2 [Example 1145]
pEC50: 8.97
--
substance: H-Y[Aib]QGTFTSDYSI[αMeL]LDKQAAK([AEEA-AEEA-γGlu-C20 diacid])QFVEWLIA[Aib]GPSSGEPPPAEG-NH2 [Example 334]
pEC50: 8.17
--
substance: H-Y[Aib]QGTFTSDFS[Orn][αMeL]LD[Orn]K([γGlu-γGlu-C18 diacid])AQ[Aib]AFIE[αMe4Pal]LLAGGPSSGAPPPEGSEE-NH2 [Example 1053]
pEC50: 7.98
--
substance: H-Y[Aib]QGTFTSDFS[Orn][αMeL]LDKK([AEEA-AEEA-γGlu-C18 diacid])AQ[Aib]AFIEYLLE[Aib]GESSGAPPPSGT-NH2 [Example 180]
pEC50: 8.61
--
substance: H-Y[Aib]QGTFTSDFSK[αMeL]LDKK([AEEA-γGlu-C20 diacid])AQ[Aib]AFIEYLLE[Aib]GPSSGAPPPGGS-NH2 [Example 43]
pEC50: 8.57
--
substance: H-Y[Aib]QGTFTSDFS[Orn][αMeL]LDKK([AEEA-γGlu-C18 diacid])AQ[Aib]AFIEYLLEGG[4Pal]SSGAPPPGGS-NH2 [Example 163]
pEC50: 8.25
--
substance: H-Y[Aib]QGTFTSDFSK[αMeL]LDKK([AEEA-γGlu-C20 diacid])AQ[Aib]AFIEYLLAGGPSSGEPPPGGS-NH2 [Example 9]
pEC50: 8.14
--
substance: H-Y[Aib]QGTFTSD[4Pal]SQ[αMeL]LD[Orn]K([Glu-γGlu-C18 diacid])AQ[αMe4Pal]AFIQ[αMeY]LIEGGPSSGAPPPSGSEEE-NH2 [Example 1077]
pEC50: 7.73
--
substance: H-Y[Aib]QGTFTSD[4Pal]SQ[αMeL]LD[Orn]K([AEEA-γGlu-C18 diacid])AQ[αMe4Pal]AFIEYLIA[Aib]GPSSGEPPPSGSEE-NH2 [Example 1095]
pEC50: 8.56
--
substance: H-Y[Aib]QGTFTSD[4Pal]S[Orn][αMeL]LD[Orn]K([γGlu-γGlu-C18 diacid])AQ[αMe4Pal]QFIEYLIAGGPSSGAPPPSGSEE-NH2 [Example 1000]
pEC50: 8.34
--
substance: H-Y[Aib]QGTFTSDFS[Orn][αMeL]LDKK([AEEA-γGlu-C18 diacid])AQ[Aib]AFIEWLLEGGPSSGAPPPTGS-NH2 [Example 250]
pEC50: 8.42
--
substance: Y[Aib]QGTFTSD[4Pal][αMeS]Q[αMeL]LD[Orn]K([dE-γGlu-C18 diacid])AQ[αMe4Pal]QFIQ[αMeY]LIEGGPSSGEPPPSGGGE-NH2 [Example 1188]
pEC50: 8.94
--
substance: H-[NMeY][Aib]QGT[αMeF]TSDYSILLDKIAAK([AEEA-AEEA-γGlu-C20 diacid])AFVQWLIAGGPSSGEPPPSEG-NH2 [Example 300]
pEC50: 8.18
--
substance: H-Y[Aib]QGTFTSDFSK[αMeL]LDKK([AEEA-γGlu-C18 diacid])AQ[Aib]AFIEYLIE[Aib]SPSSGAPPPSGS-NH2 [Example 805]
pEC50: 8.40
